// data source = PubChem BioAssay (NCATS)

- Measurement notes: qHTS of pediatric cancer cell lines to identify multiple opportunities for drug repurposing: Confirmatory screen for U-2 OS cells (AID 1347122); also: nearly all actives have a fitted effect of over 65% in size
- Assay context: U-2 OS osteosarcoma cell viability; series mostly up to 45.9 µM
Results filed as inconclusive are left out. The source made the active and inactive calls. Calls follow the shape of the dose curve; as a rule, active = well fitted cell-killing curve with a large enough effect; inconclusive = small, poorly fitted or top-dose-only effect; inactive = no such curve, though single readings can be large or run the other way.
The reply should be one of these categories: active, inactive

1. COc1c(C)c2c(c(O)c1C/C=C(\C)CCC(=O)OCCN1CCOCC1)C(=O)OC2; active

Query: Recorded test outcome, item `COc1cc(/C=C/C(N)=O)cc(OC)c1OC`
Response: inactive

Query: Recorded test outcome, item `CC(C)=CCC/C(C)=C/CC/C(C)=C/C(=O)OCC(=O)[C@@]1(O)CC[C@H]2[C@@H]3CCC4=CC(=O)C=C[C@]4(C)[C@H]3[C@@H](O)C[C@@]21C`
Response: active
